Tested On: PI 3-kinase delta (Homo sapiens, UniProt O00329)
Sequence (O00329 whole entry): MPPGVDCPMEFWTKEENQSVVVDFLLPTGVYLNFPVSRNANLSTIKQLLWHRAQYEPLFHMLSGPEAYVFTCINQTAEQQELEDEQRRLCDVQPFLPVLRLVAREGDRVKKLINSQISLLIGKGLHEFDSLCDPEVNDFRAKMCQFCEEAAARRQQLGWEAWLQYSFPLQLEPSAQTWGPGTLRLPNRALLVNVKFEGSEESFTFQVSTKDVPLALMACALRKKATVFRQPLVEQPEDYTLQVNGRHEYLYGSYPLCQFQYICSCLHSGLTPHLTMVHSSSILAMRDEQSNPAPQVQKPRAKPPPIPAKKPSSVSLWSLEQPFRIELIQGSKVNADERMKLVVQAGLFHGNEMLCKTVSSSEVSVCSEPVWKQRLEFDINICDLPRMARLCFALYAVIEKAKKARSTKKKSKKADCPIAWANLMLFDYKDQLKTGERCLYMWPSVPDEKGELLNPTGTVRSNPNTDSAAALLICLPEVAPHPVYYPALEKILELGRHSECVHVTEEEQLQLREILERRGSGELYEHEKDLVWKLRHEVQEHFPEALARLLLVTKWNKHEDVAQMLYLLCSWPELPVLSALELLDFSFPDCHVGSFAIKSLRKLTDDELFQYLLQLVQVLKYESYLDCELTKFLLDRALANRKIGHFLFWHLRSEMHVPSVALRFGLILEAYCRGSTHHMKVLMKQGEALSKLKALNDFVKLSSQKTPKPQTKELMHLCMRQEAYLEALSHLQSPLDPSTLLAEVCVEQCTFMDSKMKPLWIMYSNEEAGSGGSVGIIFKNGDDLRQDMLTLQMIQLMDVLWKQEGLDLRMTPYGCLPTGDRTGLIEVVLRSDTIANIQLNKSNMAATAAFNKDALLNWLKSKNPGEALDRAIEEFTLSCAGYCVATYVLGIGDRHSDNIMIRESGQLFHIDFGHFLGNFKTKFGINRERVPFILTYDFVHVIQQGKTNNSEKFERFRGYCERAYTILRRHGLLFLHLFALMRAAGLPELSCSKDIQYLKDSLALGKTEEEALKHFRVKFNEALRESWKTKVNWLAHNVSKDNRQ
Sequence (P27986 461-568 partner): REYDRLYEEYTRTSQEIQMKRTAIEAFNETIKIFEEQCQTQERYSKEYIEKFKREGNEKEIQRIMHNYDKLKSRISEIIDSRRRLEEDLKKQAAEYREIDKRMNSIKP
Method: TR-FRET Adapta assay, assay F
Experimental Setup: read-out: Assay F PI3Kδ IC50
Recorded Endpoint: IC50 (nM)

[[record]]
compound = "Cc1ccc(S(=O)(=O)N2CC(C)(O)C2)cc1-c1cnc(N)c(-n2cncn2)n1"
tested_on = "PI 3-kinase delta (Homo sapiens, UniProt O00329)"
recorded_endpoint = "IC50"
reported_value = 720


1 = Cc1ccc(S(=O)(=O)N[C@H](C#N)CO)cc1-c1cnc(N)c(-n2cncn2)n1
2 = Cc1ccc(S(=O)(=O)NCC2(CO)COC2)cc1-c1cnc(N)c(-c2cn(C)nc2C)n1
Choose between 1 and 2 : whose measured IC50 value is numerically larger? Answer = label.
1

* * *

Tested On: PI 4-kinase beta (Homo sapiens)
Sequence (Q9UBF8 whole entry): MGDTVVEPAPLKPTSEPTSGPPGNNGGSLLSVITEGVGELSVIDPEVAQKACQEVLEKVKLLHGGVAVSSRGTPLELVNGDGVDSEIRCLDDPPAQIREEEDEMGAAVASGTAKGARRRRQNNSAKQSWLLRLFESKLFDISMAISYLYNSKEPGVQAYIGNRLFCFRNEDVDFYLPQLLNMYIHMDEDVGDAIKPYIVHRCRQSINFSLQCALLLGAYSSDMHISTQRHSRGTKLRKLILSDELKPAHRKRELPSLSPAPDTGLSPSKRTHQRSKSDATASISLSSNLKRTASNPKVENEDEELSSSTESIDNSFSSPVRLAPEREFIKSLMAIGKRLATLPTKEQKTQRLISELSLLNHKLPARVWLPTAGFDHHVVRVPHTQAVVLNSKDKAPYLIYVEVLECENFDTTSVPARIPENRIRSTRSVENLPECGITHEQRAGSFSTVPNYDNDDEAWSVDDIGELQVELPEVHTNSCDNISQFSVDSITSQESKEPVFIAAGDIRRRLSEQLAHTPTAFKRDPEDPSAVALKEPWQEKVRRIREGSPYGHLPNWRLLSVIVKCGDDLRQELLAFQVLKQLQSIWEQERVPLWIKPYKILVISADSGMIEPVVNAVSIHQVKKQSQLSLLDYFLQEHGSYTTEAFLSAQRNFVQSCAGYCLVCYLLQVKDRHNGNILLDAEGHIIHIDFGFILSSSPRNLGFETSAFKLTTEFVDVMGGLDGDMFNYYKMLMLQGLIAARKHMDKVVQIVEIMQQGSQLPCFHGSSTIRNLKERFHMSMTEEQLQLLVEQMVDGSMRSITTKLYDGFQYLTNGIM
Method: Kinase Glo Luminescent Kinase Assay (Kglo), assay D
Type: biochemical
Experimental Setup: read-out: Assay D PI4Kβ IC50
Recorded Endpoint: IC50 (µM)

[[record]]
compound = "Cc1ccc(S(=O)(=O)NC2CCSC2=O)cc1-c1cnc(N)c(-n2cncn2)n1 (stereo not shown)"
units_text = "µM"
reported_value = 5.3

[[record]]
compound = "Cc1csc(-c2nc(-c3cc(S(=O)(=O)NCC(C)(C)O)ccc3C)cnc2N)n1"
units_text = "µM"
reported_value = 4.55

[[record]]
compound = "Cc1nc(-c2nc(-c3cc(S(=O)(=O)NCCC(C)(C)O)ccc3C)cnc2N)cs1"
units_text = "µM"
reported_value = 4.71


* * *

Tested On: UniProt P42345
Method: Lanthascreen kinase binding assay, assay G
Experimental Setup: read-out: Assay G mTOR IC50
pIC50: −log10 of the molar value.
Recorded Endpoint: pIC50

Example molecules with recorded pIC50:
[[record]]
molecule = "CCn1cc(-c2nc(-c3cc(S(=O)(=O)NCCC(C)(C)O)ccc3C)cnc2N)cn1"
reported_value = 5.18

[[record]]
molecule = "Cc1ccc(S(=O)(=O)NCCC(C)(C)O)cc1-c1cnc(N)c(-n2cnc(C(C)C)n2)n1"
reported_value = 5.22

[[record]]
molecule = "Cc1ccc(S(=O)(=O)NC2CCC(F)(F)CC2)cc1-c1cnc(N)c(-c2cnn(C)c2)n1"
reported_value = 5.32

[[record]]
molecule = "Cc1nc(-c2nc(-c3cc(S(=O)(=O)NCC(C)(C)O)ccc3C)cnc2N)c(C)s1"
reported_value = 5.42

[[record]]
molecule = "Cc1ccc(S(=O)(=O)NCCC(C)(C)O)cc1-c1cnc(N)c(-c2cnn(Cc3cccnc3)c2)n1"
reported_value = 5.34


1 = Cc1ccc(S(=O)(=O)NC2CC3(CC(O)C3)C2)cc1-c1cnc(N)c(-n2cncn2)n1 (single isomer, unassigned) [Example 70b]
2 = Cc1ccc(S(=O)(=O)N2CCC(F)C2)cc1-c1cnc(N)c(-n2cncn2)n1 (stereo not shown)
Choose between 1 and 2 : whose measured pIC50 value is numerically larger? Answer = label.
1

* * *

Tested On: PI 4-kinase beta (Homo sapiens)
Method: Kinase Glo Luminescent Kinase Assay (Kglo), assay D
Format: biochemical
Experimental Setup: read-out: Assay D PI4Kβ IC50
pIC50: −log10 of the molar value.
Recorded Endpoint: pIC50

[[record]]
test_smiles = "Cc1ccc(S(=O)(=O)NC[C@@H](C)O)cc1-c1cnc(N)c(-n2cncn2)n1"
reported_value = 5.42

[[record]]
test_smiles = "Cc1cc(-c2nc(-c3cc(S(=O)(=O)NCC(C)(C)O)ccc3C)cnc2N)on1"
reported_value = 5.21

[[record]]
test_smiles = "Cc1ccc(S(=O)(=O)NCCC(C)(C)O)cc1-c1cnc(N)c(-c2ccc(CO)s2)n1"
reported_value = 6.13

[[record]]
test_smiles = "Cc1ccc(S(=O)(=O)NCC(C)(C)O)cc1-c1cnc(N)c(-c2cn(C)nc2C)n1"
reported_value = 5.19

[[record]]
test_smiles = "Cc1ccc(S(=O)(=O)NCC2(O)CCCC2)cc1-c1cnc(N)c(-n2cncn2)n1"
reported_value = 5.20


a = Cc1ccc(S(=O)(=O)NCCC(C)(C)O)cc1-c1cnc(N)c(-c2cnn(CCN3CCOCC3)c2)n1
b = Cc1ccc(S(=O)(=O)NCC(C)(C)O)cc1-c1cnc(N)c(-c2cnc(C3CC3)s2)n1
c = Cc1ccc(S(=O)(=O)NCCC(C)(C)O)cc1-c1cnc(N)c(-c2cc[nH]n2)n1
d = Cc1ccc(S(=O)(=O)NCC(C)(F)F)cc1-c1cnc(N)c(-n2cncn2)n1
Your job: order these 4 records by pIC50, ascending. Show the ranking through the labels, in the order asked for.
a, d, b, c
(a: 5.22, d: 5.54, b: 5.82, c: 6.06)

* * *

Tested On: PI 3-kinase alpha (Homo sapiens, UniProt P42336)
Sequence (P42336 whole entry): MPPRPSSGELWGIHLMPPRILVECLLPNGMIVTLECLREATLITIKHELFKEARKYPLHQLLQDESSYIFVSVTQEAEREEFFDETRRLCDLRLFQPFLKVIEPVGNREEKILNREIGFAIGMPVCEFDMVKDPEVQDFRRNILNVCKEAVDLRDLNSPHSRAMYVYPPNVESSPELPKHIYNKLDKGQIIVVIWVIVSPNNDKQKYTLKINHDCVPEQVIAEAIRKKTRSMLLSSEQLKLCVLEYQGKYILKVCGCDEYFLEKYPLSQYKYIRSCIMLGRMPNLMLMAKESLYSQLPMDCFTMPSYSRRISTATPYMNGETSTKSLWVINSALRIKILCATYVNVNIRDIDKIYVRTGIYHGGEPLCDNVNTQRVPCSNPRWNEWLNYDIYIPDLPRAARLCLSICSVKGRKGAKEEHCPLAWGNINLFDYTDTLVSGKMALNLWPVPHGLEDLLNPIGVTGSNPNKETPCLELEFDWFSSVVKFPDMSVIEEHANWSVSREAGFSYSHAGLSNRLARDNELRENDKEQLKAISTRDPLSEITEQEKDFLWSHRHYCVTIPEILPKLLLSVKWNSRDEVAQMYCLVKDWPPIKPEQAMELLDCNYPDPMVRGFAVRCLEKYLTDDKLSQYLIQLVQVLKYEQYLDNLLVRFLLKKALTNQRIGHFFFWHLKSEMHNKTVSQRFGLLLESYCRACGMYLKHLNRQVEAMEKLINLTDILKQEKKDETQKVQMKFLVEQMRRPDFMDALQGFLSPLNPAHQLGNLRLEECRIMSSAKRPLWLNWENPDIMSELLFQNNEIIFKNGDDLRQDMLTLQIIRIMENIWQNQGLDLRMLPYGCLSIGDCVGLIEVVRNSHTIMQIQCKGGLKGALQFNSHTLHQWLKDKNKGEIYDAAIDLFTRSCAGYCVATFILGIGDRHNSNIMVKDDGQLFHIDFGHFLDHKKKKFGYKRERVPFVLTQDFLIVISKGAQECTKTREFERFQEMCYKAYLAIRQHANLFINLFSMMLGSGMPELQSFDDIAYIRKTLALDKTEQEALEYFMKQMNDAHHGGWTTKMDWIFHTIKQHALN
Method: Kinase Glo Luminescent Kinase Assay (Kglo), assay A
Type: biochemical
Experimental Setup: read-out: Assay A PI3Kα IC50
pIC50: −log10 of the molar value.
Recorded Endpoint: pIC50

Example molecules with recorded pIC50:
[[record]]
molecule = "Cc1ccc(S(=O)(=O)NCCC(C)(C)O)cc1-c1cnc(N)c(-c2ccc(C3CC3)s2)n1"
reported_value = 6.60

[[record]]
molecule = "CC(C)(O)CCNS(=O)(=O)c1ccc(Cl)c(-c2cnc(N)c(-n3cncn3)n2)c1"
reported_value = 6.04


a = Cc1cc(-c2nc(-c3cc(S(=O)(=O)NCCC(C)(C)O)ccc3C)cnc2N)n(C)n1
b = Cc1cc(-c2nc(-c3cc(S(=O)(=O)NC4CCN(C(C)C)CC4)ccc3C)cnc2N)ccn1
c = Cc1ccc(S(=O)(=O)N2CCC(F)CC2)cc1-c1cnc(N)c(-n2cncn2)n1
Your job: order these 3 records by pIC50, ascending. Show the ranking through the labels, in the order asked for.
b, c, a
(b: 5.54, c: 5.82, a: 6.66)

1 = Cc1ccc(S(=O)(=O)NC2CCC2)cc1-c1cnc(N)c(-n2cncn2)n1
2 = Cc1cc(-c2nc(-c3cc(S(=O)(=O)NC[C@H]4CCC[C@@H](CN)C4)ccc3C)cnc2N)ccn1
Input pair: 1 , 2 . Output: entry with lower pIC50. Answer = label.
2
(2: 5.70, 1: 6.74)

a = Cc1ccc(S(=O)(=O)NC[C@@](C)(O)C(F)(F)F)cc1-c1cnc(N)c(-n2cncn2)n1
b = Cc1ccc(S(=O)(=O)NCCC(C)(C)O)cc1-c1cnc(N)c(-c2cccnc2F)n1
Input pair: a , b . Output: entry with lower pIC50. Answer = label.
b

A = Cc1cc(F)c(S(=O)(=O)NCCCO)cc1-c1cnc(N)c(-c2cnn(C)c2)n1
B = Cc1noc(-c2nc(-c3cc(S(=O)(=O)NCC(C)(C)CO)ccc3C)cnc2N)n1
C = CCn1ncc(-c2nc(-c3cc(S(=O)(=O)NCC(C)(C)O)ccc3C)cnc2N)n1
D = Cc1ccc(S(=O)(=O)N2CCC(F)(F)CC2)cc1-c1cnc(N)c(-n2cncn2)n1
Rank by pIC50 (largest to smallest). Show the ranking through the labels, in the order asked for.
C, A, D, B
(C: 6.74, A: 6.54, D: 6.13, B: 5.85)

* * *

Tested On: PI 3-kinase delta (Homo sapiens)
Method: TR-FRET Adapta assay, assay F
Experimental Setup: read-out: Assay F PI3Kδ IC50
Recorded Endpoint: IC50 (nM)

Example molecules with recorded IC50:
[[record]]
molecule = "Cc1ncc(-c2nc(-c3cc(S(=O)(=O)NCC4(CO)CCOCC4)ccc3C)cnc2N)s1 [Example 45.9]"
reported_value = 100

[[record]]
molecule = "Cc1ccc(S(=O)(=O)NCC2(C)CCCO2)cc1-c1cnc(N)c(-c2cn(C)nc2C)n1 (stereo not shown) [Example 128.4]"
reported_value = 500

[[record]]
molecule = "Cc1ccc(S(=O)(=O)NCC(C)(F)F)cc1-c1cnc(N)c(-n2cncn2)n1 [Example 127.43]"
reported_value = 3400

[[record]]
molecule = "Cc1cc(F)c(S(=O)(=O)NCCC(C)(C)O)cc1-c1cnc(N)c(-n2cncn2)n1 [Example 116]"
reported_value = 300

[[record]]
molecule = "Cc1ccc(S(=O)(=O)NCC2(CO)CCCC2)cc1-c1cnc(N)c(-n2cncn2)n1 [Example 127.25]"
reported_value = 340


1 = Cc1ncc(-c2nc(-c3cc(S(=O)(=O)NCC4(O)COC4)ccc3C)cnc2N)s1 [Example 45.11]
2 = Cc1ccc(S(=O)(=O)NCCC(C)(C)O)cc1-c1cnc(N)c(-c2cnn(CCN3CCOCC3)c2)n1 [Example 119.41]
Choose between 1 and 2 : whose measured IC50 value is numerically larger? Answer = label.
1
(1: 130 nM, 2: 30 nM)

a = Cc1cc(-c2nc(-c3cc(S(=O)(=O)NCCC(C)(C)O)ccc3C)cnc2N)n(C)n1 [Example 119.36]
b = Cc1ccc(S(=O)(=O)NCCC(C)(C)O)cc1-c1cnc(N)c(-c2cnn(Cc3ccncc3)c2)n1 [Example 119.39]
c = Cc1cc(-c2nc(-c3cc(S(=O)(=O)NCC4CCCO4)ccc3C)cnc2N)ccn1 (stereo not shown) [Example 129.17]
Rank by IC50 (largest to smallest). Show the ranking through the labels, in the order asked for.
c, a, b

1 = Cc1cn(-c2nc(-c3cc(S(=O)(=O)NCCC(C)(C)O)ccc3C)cnc2N)cn1 [Example 63]
2 = Cc1ccc(S(=O)(=O)N2CC(CO)C2)cc1-c1cnc(N)c(-n2cncn2)n1 [Example 127.45]
Input pair: 1 , 2 . Output: entry with lower IC50. Answer = label.
1

A = CCN1CCC[C@H]1CNS(=O)(=O)c1ccc(C)c(-c2cnc(N)c(-c3cn(C)nc3C)n2)c1 [Example 128.1]
B = Cc1cc(-c2nc(-c3cc(S(=O)(=O)NCCN)ccc3C)cnc2N)ccn1 [Example 129.34]
Input pair: A , B . Output: entry with lower IC50. Answer = label.
A
